B1: H2-Kb / B5 (parent)
chain 1: TQTVSQSDAHVTVFEGDSVELRCNYSYGGSIYLSWYIQHHGHGLQFLLKYYSGNPVVQGVNGFEAEFSKSDSSFHLRKASVHWSDSAVYFCAVSLYQGGRALIFGTGTTVSVSP
chain 2: EAGVTQSPRYAVLQEGQAVSFWCDPISGHDTLYWYQQPRDQGPQLLVYFRDEAVIDNSQLPSDRFSAVRPKGTNSTLKIQSAKQGDTATYLCASSFAGGARAEQFFGPGTRLTVL
chain 3: not shown
chain 4: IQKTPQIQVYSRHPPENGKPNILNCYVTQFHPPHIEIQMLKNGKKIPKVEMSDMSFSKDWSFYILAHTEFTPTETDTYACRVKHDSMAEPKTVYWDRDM
chain 5: SIINFEKL

# Variants of: B1
# assay details: % of reporter cells activated (NFAT-GFP), raw; also: test concentration or dose not given here
# test parameters: with B5; scale: % of reporter cells activated
Lab note: anything with ratio to parent below 1 is marked Criterion met; values at 1 or higher are marked Criterion not met.

// known answers, use as guide
mutation_descriptor="chain 5 K7W" cat="Criterion not met"
mutation_descriptor="chain 5 F5P" cat="Criterion not met"
mutation_descriptor="chain 5 K7G" cat="Criterion met"
mutation_descriptor="chain 5 N4H" cat="Criterion met"
mutation_descriptor="chain 5 K7E" cat="Criterion not met"

Query :: Please indicate whether the reported ratio to parent of chain 5 L8N is strictly below 1.
Result :: Criterion not met

Query :: Check if ratio to parent falls below 1 for chain 5 I2N .
Result :: Criterion not met

Query :: Field: below-cutoff. Rule: recorded ratio to parent strictly less than 1. Subject: chain 5 K7H
Result :: Criterion not met

Query :: Lab note: ratio to parent threshold 1. Does this variant come in strictly under it? chain 5 S1Y
Result :: Criterion met

Query :: Answer whether the variant chain 5 L8S has ratio to parent strictly less than 1
Result :: Criterion not met

Query :: Would you kindly verify if ratio to parent of chain 5 S1V is strictly less than 1?
Result :: Criterion not met
